Test system: IICR (IP3 induced calcium release) in CHO cells
Test Summary: Assay of IICR (IP3 induced calcium release)-inhibiting action
Assay type: cell-based, Chinese hamster
Study Conditions: Cricetulus griseus, CHO, test compound 10 μmol; CHO cells, 10 μM ATP; read-out: IICR level (percentage of inhibition)
Label YES when inhibition at 10 µM is at or above 20%; otherwise label NO.

O=C(CCNCCc1ccccc1)c1ccco1    YES
O=C(CCN(CCO)Cc1ccccc1)c1cc(Cl)sc1Cl    NO
O=C(CCN1CCN(c2ccco2)CC1)c1ccc(F)cc1    YES

Entry O=C(CCNCCN(CCO)CCC(=O)c1ccc(Br)s1)c1ccc(Br)s1 : is its inhibition at 10 µM no less than 20%?
NO

Entry CC(C)N(CCCC(=O)c1ccccc1)Cc1ccccc1 please
NO

Entry CN(CCC(=O)c1ccncc1)Cc1ccccc1 please
YES

Entry NCCCCNCCC(=O)c1ccc2ccccc2c1 please
NO

Entry O=C(CCN(CCO)CCO)c1ccc(Cl)s1 please
NO

Entry CN1CCN(CCC(=O)c2ccccc2)CC1 please
YES

Entry Cc1ccc(C(=O)CCN(Cc2ccccc2)C(C)(C)C)o1 please
YES

Entry CCN(CCC(=O)c1ccc2c(c1)Cc1ccccc1-2)Cc1ccccc1 please
NO

Entry CC(C)N(CCO)CCC(=O)c1ccc(Br)s1 please
NO

Entry O=C(CCN(CCO)c1ccccc1)c1ccco1 please
NO

Entry Cc1csc(C(=O)CCN(C)Cc2ccccc2)n1 please
NO

Entry COC(=O)C(CSSCC(NCCC(=O)c1nccs1)C(=O)OC)NCCC(=O)c1nccs1 (stereo not shown) please
NO

Entry O=C(CCN1CCCCC1)c1ccccn1 please
NO

###

Test system: IICR (IP3 induced calcium release) in CHO cells
Test Summary: Assay of IICR (IP3 induced calcium release)-inhibiting action
Format: cell-based, Chinese hamster
Study Conditions: Cricetulus griseus, CHO, test compound 10 μmol; CHO cells, 10 μM ATP; read-out: IICR level (percentage of inhibition)
Reported inhibition at 10 µM values are given for each entry in this list.
Just the number please, in %, no unit attached.

Fill blank: measured inhibition at 10 µM of the molecule Cc1cc(C(=O)CCN(CCO)CCO)c(C)s1 [Example 229] is ____.
0

Entry CC(C)(C)N(CCC(=O)c1ccncc1)Cc1ccccc1 [Example 210] please
0

Entry CC(C)(C)N(CCO)CCC(=O)c1cnccn1 [Example 214] please
0

Entry Cc1cc(C(=O)CCN(CCO)C(C)C)c(C)s1 [Example 230] please
0

Entry Cc1ccc(C(=O)CCNCCO)s1 [Example 306] please
50

Entry CC(C)N(CCO)CCC(=O)c1ccccc1 [Example 312] please
20

Entry CC(C)(C)N(CCC(=O)c1cccs1)Cc1ccccc1 [Example 193] please
70

Entry CCCCN(CCO)CCC(=O)c1ccc(C)o1 [Example 255] please
0

Entry O=C(CCN(CCO)c1ccccc1)c1ccccc1 [Example 133] please
20

Entry O=C(CCN1CCC(CCO)CC1)c1ccc(Br)s1 [Example 361] please
22

Entry CCN(CCC(=O)c1ccc(C)o1)Cc1ccccc1 [Example 239] please
0

Entry O=C(CCNCCc1ccccc1)c1ccsc1 [Example 223] please
0

Entry O=C(CCN(CCO)Cc1ccccc1)c1ccc(Br)s1 [Example 327] please
70

Entry CC(C)(C)N(CCC(=O)c1ccc(Cl)cc1)Cc1ccccc1 [Example 305] please
60

###

Tested on: IICR (IP3 induced calcium release) in CHO cells
Test Summary: Assay of IICR (IP3 induced calcium release)-inhibiting action
Type: cell-based, Chinese hamster
Study Conditions: Cricetulus griseus, CHO, test compound 30 μmol; CHO cells, 10 μM ATP; read-out: IICR level (percentage of inhibition)
Reported inhibition at 30 µM values are given for each entry in this list.
Include the unit right after the number.

Cc1ccc(C(=O)CCN(Cc2ccccc2)C(C)(C)C)s1    80%
COC(=O)C(CSSCC(NCCC(=O)c1cnccn1)C(=O)OC)NCCC(=O)c1cnccn1 (stereo not drawn)    12%
O=C(CCN(CCO)CCO)n1nnc2ccccc21    50%
COC(=O)C(CSC)NCCC(=O)c1ccc(Br)s1 (stereo not drawn)    76%
CCCCN(CCO)CCC(=O)c1cccnc1    0%

Fill blank: measured inhibition at 30 µM of the compound Cc1cccc2cc(C(=O)CCN(C)Cc3ccccc3)ccc12 is ____.
70%

Entry CC(C)N(CCC(=O)c1ccco1)Cc1ccccc1 please
90%

Entry Cc1cc(C(=O)CCN(CCO)C(C)C)c(C)s1 please
0%

###

Tested on: IICR (IP3 induced calcium release) in CHO cells
Test Summary: Assay of IICR (IP3 induced calcium release)-inhibiting action
Type: cell-based, Chinese hamster
Study Conditions: Cricetulus griseus, CHO, test compound 10 μmol; CHO cells, 10 μM ATP; read-out: IICR level (percentage of inhibition)
Observation Type: inhibition at 10 µM
Include the unit right after the number.

CC(C)N(CCC(=O)c1ccco1)Cc1ccccc1    20%
O=C(CCN(CCO)CCO)c1cccnc1    30%

Next, consider the following molecule.
Lab note: need inhibition at 10 µM with IICR (IP3 induced calcium release) in CHO cells for entry O=C(CCNc1ccccc1S)c1cccs1 , please look it up.
0%

###

Test system: IICR (IP3 induced calcium release) in CHO cells
Test Summary: Assay of IICR (IP3 induced calcium release)-inhibiting action
Type: cell-based, Chinese hamster
Study Conditions: Cricetulus griseus, CHO, test compound 100 μmol; CHO cells, 10 μM ATP; read-out: IICR level (percentage of inhibition)
Observation Type: inhibition at 100 µM (%)
Just the number please, in %, no unit attached.

# example entries with known answers
CCN(CCC(=O)c1ccc(F)cc1)Cc1ccccc1    30
NCCN(CCO)CCC(=O)c1ccc(Br)s1    60
O=C(CCN(CCO)Cc1ccccc1)c1ccc(Cl)s1    70
C=CCC(=O)c1ccc2ccccc2c1    30
CC(C)(C)N(CCC(=O)c1ccc(Cl)s1)Cc1ccccc1    70

Fill blank: measured inhibition at 100 µM of the compound NCCCCNCCC(=O)c1ccc2ccccc2c1 is ____.
0

Entry CCCCN(CCO)CCC(=O)c1ccc(Oc2ccccc2)cc1 please
30

Entry CC(C)N(CCC(=O)c1ccccn1)Cc1ccccc1 please
90

Entry CC(C)N(CCO)CCC(=O)N1CCCCCC1=O please
0

Entry CC(C)(C)N(CCO)CCC(=O)c1nccs1 please
0

Entry CC(C)N(CCO)CCC(=O)c1ccc(Br)s1 please
50

Entry CC(C)N(CCC(=O)c1ccc(Oc2ccccc2)cc1)Cc1ccccc1 please
95

Entry CC(C)N(CCC(=O)c1cc(Cl)sc1Cl)Cc1ccccc1 please
100

Entry CC(C)(C)N(CCC(=O)c1ccc(Br)cc1)Cc1ccccc1 please
40

Entry CC(C)N(CC(=O)c1ccccc1)Cc1ccccc1 please
70

###

Tested on: IICR (IP3 induced calcium release) in CHO cells
Test Summary: Assay of IICR (IP3 induced calcium release)-inhibiting action
Format: cell-based, Chinese hamster
Study Conditions: Cricetulus griseus, CHO, test compound 30 μmol; CHO cells, 10 μM ATP; read-out: IICR level (percentage of inhibition)
Reported inhibition at 30 µM values are given for each entry in this list.
Just the number please, in %, no unit attached.

# example entries with known answers
CC(C)N(CCC(=O)c1cc2ccccc2s1)Cc1ccccc1    80
CC(C)N(CCC(=O)c1nccs1)Cc1ccccc1    90
CN(CCO)CCC(=O)c1cnccn1    30

Next, consider the following molecule.
Lab note: need inhibition at 30 µM with IICR (IP3 induced calcium release) in CHO cells for entry O=C(CCN(CCO)Cc1ccccc1)c1ccc[nH]1 , please look it up.
50

###

System: IICR (IP3 induced calcium release) in CHO cells
Test Summary: Assay of IICR (IP3 induced calcium release)-inhibiting action
Assay type: cell-based, Chinese hamster
Study Conditions: Cricetulus griseus, CHO, test compound 100 μmol; CHO cells, 10 μM ATP; read-out: IICR level (percentage of inhibition)
Observation Type: inhibition at 100 µM (%)
Just the number please, in %, no unit attached.

# example entries with known answers
CC(C)N(CCO)CCC(=O)c1cccnc1    20
CCCCN(CCO)CCC(=O)c1ccccn1    20
NCCCNCCCCNCCC(=O)c1ccc2ccccc2c1    0
NCCSSCCN(CCC(=O)c1ccc(I)cc1)CCC(=O)c1ccc(I)cc1    70
O=C(CCN(CCO)Cc1ccccc1)c1cccs1    0
Cc1csc(C(=O)CCN(Cc2ccccc2)Cc2ccccc2)c1    30
CC(C)N(CCO)CCC(=O)c1ccc(-c2ccccc2)cc1    60
Cc1ccc(C(=O)CCNC23CC4CC(CC(C4)C2)C3)o1    50

Next, consider the following compound.
Fill blank: measured inhibition at 100 µM of the compound O=C(CCN(CCO)c1ccccc1)c1ccco1 is ____.
20
